Test: Metabolic stability in cryopreserved human hepatocytes
Type: in vitro ADME
Conditions: human, cryopreserved human hepatocytes (pooled, suspension), Table S1; PROTACs, cryopreserved human hepatocytes; read-out: t1/2

- molecule: "O=C(COc1cccc2c1C(=O)N(C1CCC(=O)NC1=O)C2=O)NCCOCCOCCOCCNC(=O)c1ccc2c(c1)nc(Nc1cccc(Cl)c1)c1ccncc12 (centres unmarked)"
  comparisonSign: "="
  half-life at 1 µM (h): 1.28
- molecule: "Cc1ncsc1-c1ccc([C@H](C)NC(=O)[C@@H]2C[C@@H](O)CN2C(=O)[C@@H](NC(=O)CCCCn2cc(CN3CCN(C(=O)c4cc(Cc5n[nH]c(=O)c6ccccc56)ccc4F)CC3)nn2)C(C)(C)C)cc1"
  comparisonSign: ">"
  half-life at 1 µM (h): 4
- molecule: "O=C(COc1cccc2c1C(=O)N(C1CCC(=O)NC1=O)C2=O)NCCCCCCCCNC(=O)COc1c(-c2csc(N3CCOCC3)n2)ccc(F)c1F (centres unmarked)"
  comparisonSign: "="
  half-life at 1 µM (h): 0.14
- molecule: "O=C1CCC(N2C(=O)c3cccc(NCCOCCOCCOc4c(-c5csc(N6CCOCC6)n5)ccc(F)c4F)c3C2=O)C(=O)N1 (centres unmarked)"
  comparisonSign: "="
  half-life at 1 µM (h): 0.755
- molecule: "Cc1ncsc1-c1ccc([C@H](C)NC(=O)[C@@H]2C[C@@H](O)CN2C(=O)[C@@H](NC(=O)CN2CCN(C(=O)c3ccc4c(c3)nc(Nc3cccc(Cl)c3)c3ccncc34)CC2)C(C)(C)C)cc1"
  comparisonSign: "="
  half-life at 1 µM (h): 3.63

* * *

Experiment: Metabolic stability in cryopreserved human hepatocytes
Type: in vitro ADME
Conditions: human, cryopreserved human hepatocytes (pooled, suspension), Figures 3-5; cryopreserved human hepatocytes; read-out: half-life (t1/2)
recordedMetric: half-life at 1 µM

- compound: "Cc1ncsc1-c1ccc([C@H](C)NC(=O)[C@@H]2C[C@@H](O)CN2C(=O)[C@@H](NC(=O)CN2CCN(C(=O)c3ccc4c(c3)nc(Nc3cccc(Cl)c3)c3ccncc34)CC2)C(C)(C)C)cc1 [Compound 20]"
  recordedMetric: "half-life at 1 µM"
  testValue: "3.63 h"
- compound: "Cc1ncsc1-c1ccc([C@H](CC(=O)NCCCCCCNC(=O)COc2c(-c3csc(N4CCOCC4)n3)ccc(F)c2F)NC(=O)[C@@H]2C[C@@H](O)CN2C(=O)[C@@H](NC(=O)C2(F)CC2)C(C)(C)C)cc1 [Compound 40]"
  recordedMetric: "half-life at 1 µM"
  testValue: "1.11 h"
- compound: "Cc1ncsc1-c1ccc([C@H](C)NC(=O)[C@@H]2C[C@@H](O)CN2C(=O)[C@@H](NC(=O)CCCCNC(=O)COc2c(-c3csc(N4CCOCC4)n3)ccc(F)c2F)C(C)(C)C)cc1 [Compound 33]"
  recordedMetric: "half-life at 1 µM"
  testValue: "1.24 h"
- compound: "Cc1sc2c(c1C)C(c1ccc(Cl)cc1)=N[C@@H](CC(=O)NCCCN1CCN(CCCNc3cccc4c3C(=O)N(C3CCC(=O)NC3=O)C4=O)CC1)c1nnc(C)n1-2 (stereo partly drawn) [Compound 6]"
  recordedMetric: "half-life at 1 µM"
  testValue: "1.45 h"
- compound: "Cc1ncsc1-c1ccc([C@H](C)NC(=O)[C@@H]2C[C@@H](O)CN2C(=O)[C@@H](NC(=O)CCCCn2cc(CCCC(=O)N3CCN(C(=O)c4cc(Cc5n[nH]c(=O)c6ccccc56)ccc4F)CC3)nn2)C(C)(C)C)cc1 [Compound 25]"
  recordedMetric: "half-life at 1 µM"
  testValue: "> 4 h"
- compound: "Cc1ncsc1-c1ccc([C@H](C)NC(=O)[C@@H]2C[C@@H](O)CN2C(=O)[C@@H](NC(=O)CCCCCCNC(=O)c2ccc3c(c2)nc(Nc2cccc(Cl)c2)c2ccncc23)C(C)(C)C)cc1 [Compound 18]"
  recordedMetric: "half-life at 1 µM"
  testValue: "3.48 h"
- compound: "Cc1ncsc1-c1ccc([C@H](C)NC(=O)[C@@H]2C[C@@H](O)CN2C(=O)[C@@H](NC(=O)CCCCNC(=O)c2ccc3c(c2)nc(Nc2cccc(Cl)c2)c2ccncc23)C(C)(C)C)cc1 [Compound 17]"
  recordedMetric: "half-life at 1 µM"
  testValue: "3.4 h"
- compound: "Cc1ncsc1-c1ccc([C@H](C)NC(=O)[C@@H]2C[C@@H](O)CN2C(=O)[C@@H](NC(=O)CCCCn2cc(COc3c(-c4csc(N5CCOCC5)n4)ccc(F)c3F)nn2)C(C)(C)C)cc1 [Compound 39]"
  recordedMetric: "half-life at 1 µM"
  testValue: "0.668 h"
- compound: "Oc1c(-c2csc(N3CCOCC3)n2)ccc(F)c1F [Compound 46, reference compound]"
  recordedMetric: "half-life at 1 µM"
  testValue: "< 0.333 h"
- compound: "Cc1ncsc1-c1ccc([C@H](C)NC(=O)[C@@H]2C[C@@H](O)CN2C(=O)[C@@H](NC(=O)CCCCCCNC(=O)COc2c(-c3csc(N4CCOCC4)n3)ccc(F)c2F)C(C)(C)C)cc1 [Compound 35]"
  recordedMetric: "half-life at 1 µM"
  testValue: "0.417 h"
- compound: "Cc1sc2c(c1C)C(c1ccc(Cl)cc1)=N[C@@H](CC(=O)NCCCCNC(=O)COc1cccc3c1C(=O)N(C1CCC(=O)NC1=O)C3=O)c1nnc(C)n1-2 (stereo partly drawn) [Compound 1, dBet1]"
  recordedMetric: "half-life at 1 µM"
  testValue: "2.25 h"
- compound: "Cc1sc2c(c1C)C(c1ccc(Cl)cc1)=N[C@@H](CC(=O)NCCCCCCCCNC(=O)COc1cccc3c1C(=O)N(C1CCC(=O)NC1=O)C3=O)c1nnc(C)n1-2 (stereo partly drawn) [Compound 2, dBet6, reference compound]"
  recordedMetric: "half-life at 1 µM"
  testValue: "0.303 h"
- compound: "O=C(COc1cccc2c1C(=O)N(C1CCC(=O)NC1=O)C2=O)NCCCCCCCCNC(=O)COc1c(-c2csc(N3CCOCC3)n2)ccc(F)c1F (stereo not drawn) [Compound 26]"
  recordedMetric: "half-life at 1 µM"
  testValue: "0.14 h"
- compound: "Cc1ncsc1-c1ccc([C@H](C)NC(=O)[C@@H]2C[C@@H](O)CN2C(=O)[C@@H](NC(=O)CCN2CCN(C(=O)C[C@@H]3N=C(c4ccc(Cl)cc4)c4c(sc(C)c4C)-n4c(C)nnc43)CC2)C(C)(C)C)cc1 [Compound 11]"
  recordedMetric: "half-life at 1 µM"
  testValue: "> 4 h"
- compound: "Cc1ncsc1-c1ccc([C@H](C)NC(=O)[C@@H]2C[C@@H](O)CN2C(=O)[C@@H](NC(=O)CCCCn2cc(CN3CCN(C(=O)c4cc(Cc5n[nH]c(=O)c6ccccc56)ccc4F)CC3)nn2)C(C)(C)C)cc1 [Compound 24]"
  recordedMetric: "half-life at 1 µM"
  testValue: "> 4 h"

* * *

Measured half-life at 1 µM, listed per entry for reference.
Assay: Metabolic stability in cryopreserved human hepatocytes
Format: in vitro ADME
Conditions: human, cryopreserved human hepatocytes (pooled, suspension), Table S1; PROTACs, cryopreserved human hepatocytes; read-out: t1/2

- compound: "O=C(COc1cccc2c1C(=O)N(C1CCC(=O)NC1=O)C2=O)NCCCCCCCCCCNC(=O)c1ccc2c(c1)nc(Nc1cccc(Cl)c1)c1ccncc12 (centres unmarked) [Compound 13]"
  half-life at 1 µM [min]: 33.6
- compound: "O=C(COc1cccc2c1C(=O)N(C1CCC(=O)NC1=O)C2=O)NCCOCCOCCOCCNC(=O)COc1c(-c2csc(N3CCOCC3)n2)ccc(F)c1F (centres unmarked) [Compound 28]"
  half-life at 1 µM [min]: 66.4
- compound: "O=C(COc1cccc2c1C(=O)N(C1CCC(=O)NC1=O)C2=O)NCCCCCCCCNC(=O)c1ccc2c(c1)nc(Nc1cccc(Cl)c1)c1ccncc12 (centres unmarked) [Compound 12]"
  half-life at 1 µM [min]: 41.4
- compound: "Cc1ncsc1-c1ccc([C@H](C)NC(=O)[C@@H]2C[C@@H](O)CN2C(=O)[C@@H](NC(=O)CCCCn2cc(COc3c(-c4csc(N5CCOCC5)n4)ccc(F)c3F)nn2)C(C)(C)C)cc1 [Compound 39]"
  half-life at 1 µM [min]: 40.1
- compound: "Cc1ncsc1-c1ccc([C@H](C)NC(=O)[C@@H]2C[C@@H](O)CN2C(=O)[C@@H](NC(=O)COCCCNC(=O)COc2c(-c3csc(N4CCOCC4)n3)ccc(F)c2F)C(C)(C)C)cc1 [Compound 36]"
  half-life at 1 µM [min]: 25.2
- compound: "Cc1ncsc1-c1ccc([C@H](C)NC(=O)[C@@H]2C[C@@H](O)CN2C(=O)[C@@H](NC(=O)COCCOCCNC(=O)COc2c(-c3csc(N4CCOCC4)n3)ccc(F)c2F)C(C)(C)C)cc1 [Compound 37]"
  half-life at 1 µM [min]: 37.6
- compound: "Cc1ncsc1-c1ccc([C@H](C)NC(=O)[C@@H]2C[C@@H](O)CN2C(=O)[C@@H](NC(=O)CCCCN(C)C(=O)COc2c(-c3csc(N4CCOCC4)n3)ccc(F)c2F)C(C)(C)C)cc1 [Compound 34]"
  half-life at 1 µM [min]: 86.1
- compound: "O=C1CCC(N2C(=O)c3cccc(NCCCCCCCCCCC(=O)N4CCN(C(=O)c5cc(Cc6n[nH]c(=O)c7ccccc67)ccc5F)CC4)c3C2=O)C(=O)N1 (centres unmarked) [Compound 21]"
  half-life at 1 µM [min]: 15.7
- compound: "Cc1ncsc1-c1ccc([C@H](CC(=O)NCCCCCCNC(=O)COc2c(-c3csc(N4CCOCC4)n3)ccc(F)c2F)NC(=O)[C@@H]2C[C@@H](O)CN2C(=O)[C@@H](NC(=O)C2(F)CC2)C(C)(C)C)cc1 [Compound 40]"
  half-life at 1 µM [min]: 66.7
- compound: "O=C(COc1cccc2c1C(=O)N(C1CCC(=O)NC1=O)C2=O)NCCOCCOCCNC(=O)COc1c(-c2csc(N3CCOCC3)n2)ccc(F)c1F (centres unmarked) [Compound 27]"
  half-life at 1 µM [min]: 39.4
- compound: "Cc1sc2c(c1C)C(c1ccc(Cl)cc1)=N[C@@H](CC(=O)NCCCCCCCCNC(=O)COc1cccc3c1C(=O)N(C1CCC(=O)NC1=O)C3=O)c1nnc(C)n1-2 (some centres unmarked) [Compound 2, dBet6, reference compound]"
  half-life at 1 µM [min]: 18.2
